condition label: in ethylbenzene, 304.88 K

smiles | solubility (mole fraction)
CCCCCCCCCCCCCCCCCCCCCCCC | 0.144

====

condition label: in ethylbenzene, 303.08 K
experimental readout: solubility (mole fraction)

smiles | experimental readout | observed value
CCCCCCCCCCCCCCCCCCCCCCCC | solubility (mole fraction) | 0.117

====

condition label: in ethylbenzene, 275.75 K
experimental readout: solubility (mole fraction)

smiles | observed value
CCCCCCCCCCCCCCCCCCCC | 0.0265

====

condition label: in ethylbenzene, 279.76 K

smiles | solubility (mole fraction)
CCCCCCCCCCCCCCCCCCCCCCCC | 0.00689

====

condition label: in ethylbenzene, 284.43 K

smiles | solubility (mole fraction)
CCCCCCCCCCCCCCCCCCCCCC | 0.0294
